- EXPERIMENT_SUMMARY: In vivo pharmacokinetics, IP injection or oral gavage
- Design: species or system mouse
- STUDY_CONDITIONS: male, B6SJLF1/J, mouse, brain and plasma, oral, 10 mg/kg
Please respond with reported Kp at 3 h for every item in the list.

Given the entry CN1CCN(Cc2ccc(-c3cnc4[nH]cc(-c5ccc6[nH]ccc6c5)c4c3)cc2)CC1 [compound 1, reference compound] , report its measured Kp at 3 h.
0.19

For the compound OCCN1CCN(Cc2ccc(-c3cnc4[nH]cc(-c5cccc(Cl)c5)c4c3)cc2)CC1 [Prostetin/12k] , what Kp at 3 h is on record?
3.3
